subject_of_test: UniProt P20292
protocol_description: FLAP binding assay (HTRF format)
run_parameters: human FLAP wild type, Table 6 (additional runs)
pKi: −log10 of the molar value. Counter-ions that a name gives are not always drawn.
experimental_endpoint: pKi

Nc1cnc(-c2ccc(-c3cccnc3S(=O)(=O)C3CC3)cc2F)cn1 [Example 829, formic acid salt] ... 8.24
Nc1cnc(-c2ccc(-c3ccc(C(F)(F)F)cc3Oc3nccc(N)n3)cc2F)cn1 [Example 556] ... 9.15

A. Nc1cnc(-c2ccc(-c3cccnc3-c3ccccc3)cc2F)cn1 [Example 893]
B. COc1nc(-c2ccc(-c3ccccc3S(=O)(=O)NC(C)(C)C)cc2F)cnc1N [Example 433]
C. Nc1cnc(-c2ccc(-c3cccnc3Oc3ccccc3)cc2F)cn1 [Example 894]
D. Nc1ncc(-c2ccc(-c3cccnc3OC3CCS(=O)(=O)CC3)cc2F)cn1 [Example 648]
Challenge: Reorder: pKi, max to min. # answer = labels listed in requested order
Response given: B, C, A, D

A. Nc1cnc(-c2ccc(-c3ccc(C(F)(F)F)cc3C(=O)N3CCOCC3)cc2F)cn1 [Example 521]
B. CC(=O)N1CCCC(S(=O)(=O)c2ncccc2-c2ccc(-c3cnc(N)cn3)c(F)c2)C1 (centres unmarked) [Example 903]
C. Nc1cnc(-c2ccc(-c3ccc(C(F)(F)F)cc3Oc3ccnc(N)n3)cc2F)cn1 [Example 555]
D. Nc1cnc(-c2ccc(-c3cccnc3S(=O)(=O)C3CCN(CCO)CC3)cc2F)cn1 [Example 904]
Challenge: Rank by pKi (largest to smallest). Answer by listing the labels in the requested order.
Response given: C, A, B, D
(C: 8.80, A: 8.27, B: 7.41, D: 6.59)

1. Nc1ccnc(Oc2ccccc2-c2ccc(-c3cnc4[nH]ccc4c3)c(F)c2)n1 [Example 524]
2. CS(=O)(=O)c1cc(F)ccc1-c1ccc(-c2cnc3[nH]ccc3n2)c(F)c1 [Example 489]
Challenge: Compare 1 and 2 by numeric pKi and name the larger one. Give the label under which the chosen entry appears.
Response given: 1
(1: 9.15, 2: 7.71)

P. Nc1cnc(-c2ccc(-c3cccnc3OC3CCS(=O)(=O)CC3)cc2F)cn1 [Example 647]
Q. CC(C)(C)NS(=O)(=O)c1ccccc1-c1ccc(-c2cnc(N)c(Cl)c2)c(F)c1 [Example 451, trifluoroacetic acid salt]
R. Nc1cnc(-c2ccc(-c3ccccc3-c3cn[nH]c3)cc2F)cn1 [Example 870]
Challenge: # sort list by recorded pKi, greatest to least Dear reader, please state the labels in the requested order.
Response given: Q, R, P
(Q: 8.62, R: 7.84, P: 6.64)

I. CC(CO)NS(=O)(=O)c1ccccc1-c1ccc(-c2cnc(N)c(C#N)n2)c(F)c1 (stereo in doubt) [Example 410]
II. CNc1ncc(-c2ccccc2-c2ccc(-c3cnc(N)nc3)c(F)c2)cn1 [Example 866]
Challenge: Record comparison, field pKi: mark the lower of I and II . Your answer should be the label attached to the chosen record.
Response given: II

---

subject_of_test: human FLAP (Homo sapiens (Human), UniProt P20292)
Sequence (P20292 whole entry): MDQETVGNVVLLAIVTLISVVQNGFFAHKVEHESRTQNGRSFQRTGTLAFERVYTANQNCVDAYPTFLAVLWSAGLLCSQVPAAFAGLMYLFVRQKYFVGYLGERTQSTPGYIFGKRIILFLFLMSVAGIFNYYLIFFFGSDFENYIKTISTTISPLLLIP
protocol_description: FLAP binding assay (HTRF format)
run_parameters: human FLAP wild type, Table 6 (additional runs)
pKi: −log10 of the molar value.
experimental_endpoint: pKi

The examples below pair each entry with its known result.
Nc1nccc(Oc2ccccc2-c2ccc(-c3cnc4[nH]ccc4c3)c(F)c2)n1 ... 8.89
Nc1cnc(-c2ccc(-c3ccccc3-c3cnsc3)cc2F)cn1 ... 7.64
Nc1ncc(-c2ccc(-c3ccc(C(F)(F)F)cc3C(=O)N3CCOCC3)cc2F)cn1 ... 6.54

A. Nc1cnc(-c2ccc(-c3ccccc3Oc3nccc(N)n3)cc2F)cn1
B. CC(O)CN1CCC(S(=O)(=O)c2ncccc2-c2ccc(-c3cnc(N)cn3)c(F)c2)CC1 (racemic)
Challenge: Lab log: flag the item ( A or B ) with the smaller pKi figure. Return value: the label identifying the chosen record.
Response given: B
(B: 7.24, A: 8.26)

A. Nc1ncc(-c2ccc(-c3ccccc3OCc3ccc(C(=O)O)cc3)cc2F)cn1
B. N#Cc1nc(-c2ccc(-c3ccccc3S(=O)(=O)NCCO)cc2F)cnc1N
Challenge: Kindly compare A with B and tell me which has the lower pKi figure. Answer format: the label of the selected item.
Response given: A

1. Nc1cnc(-c2ccc(-c3ccccc3S(=O)(=O)c3ccccc3)cc2F)cn1
2. Cc1cc(N)nc(Oc2ccccc2-c2ccc(-c3cnc(N)nc3)c(F)c2)n1
Challenge: Param metric = pKi; output whichever of 1 , 2 has the minimum value. Indicate your choice by writing its label.
Response given: 2
(2: 6.79, 1: 7.83)

P. Nc1cnc(-c2ccc(-c3ccccc3C(F)(F)F)cc2F)cn1
Q. Nc1cnc(-c2ccc(-c3ccccc3NS(=O)(=O)c3ccccc3)cc2F)cn1
R. CCNS(=O)(=O)c1cc(C(F)(F)F)ccc1-c1cnc(-c2cnc(N)nc2)c(F)c1
S. N#Cc1cc(Oc2ccccc2-c2ccc(-c3cnc(N)nc3)c(F)c2)ccn1
Challenge: Please give the order of these compounds when sorted by pKi, largest value leading. Write the labels in rank order as requested.
Response given: R, Q, S, P
(R: 8.44, Q: 8.11, S: 7.69, P: 6.87)
